Test system: 885512-296-R-J2-PDC complex spheroid viability;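 further: spheroids exposed to the compounds for one week; percent of tumor spheroid viability relative to DMSO vehicle control wells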
Assay: Anticancer human tumor 885512-296-R-J2-PDC patient-derived breast carcinoma cell line growth inhibition [GQUAD]
Conditions: second compound 3.16 µM; first compound 0.316 µM; active compounds read low
From the text: DNA G-quadruplex Stabilizer Agents in Combinations in Complex Spheroids A high-throughput screen of multi-cell type tumor spheroids was designed to identify active combinations of DNA G-quadruplex stabilizer agents and targeted small molecules. […] Compounds. […] If the clinical Cmax for an agent had not been determined, the highest concentration tested was 10 microM. […]
measuredMetric: viability, T/C (%)
Numbers only, in %.

{"columns": ["molecule", "assaySystem", "unitText", "viability, T/C"],
 "data": [
  ["O=C(c1cc(Cc2n[nH]c(=O)c3ccccc23)ccc1F)N1CCN(C(=O)C2CC2)CC1 + Cc1[nH]c2ccc(F)cc2c1-c1nc2c3cccnc3c3ncccc3c2[nH]1", "885512-296-R-J2-PDC complex spheroid viability", "%", 16.7],
  ["O=c1[nH]cc(F)c(=O)[nH]1 + Cc1[nH]c2ccc(F)cc2c1-c1nc2c3cccnc3c3ncccc3c2[nH]1", "885512-296-R-J2-PDC complex spheroid viability", "%", 14.3],
  ["CC[C@@]1(O)C(=O)OCc2c1cc1n(c2=O)Cc2cc3c(CN(C)C)c(O)ccc3nc2-1 + Cc1cnc(CNC(=O)c2c(=O)c3ccc(N4CCCN(C)CC4)nc3n3c2sc2ccccc23)cn1", "885512-296-R-J2-PDC complex spheroid viability", "%", 8.5],
  ["CC(C)(O)C1CCC(Nc2ccc3ncc(-c4cccc(C(F)(F)F)c4)n3n2)CC1 (stereo unspecified) + Cc1cnc(CNC(=O)c2c(=O)c3ccc(N4CCCN(C)CC4)nc3n3c2sc2ccccc23)cn1", "885512-296-R-J2-PDC complex spheroid viability", "%", 24.5],
  ["COc1ncnc(C2CC2)c1-c1ncc2cnn(Cc3ccc(-c4nc(C(F)(F)F)cn4C(C)C)cc3)c2n1 + Cc1cnc(CNC(=O)c2c(=O)c3ccc(N4CCCN(C)CC4)nc3n3c2sc2ccccc23)cn1", "885512-296-R-J2-PDC complex spheroid viability", "%", 26.2]
]}

Below: the item to evaluate.
Req: For the molecule shown here, CC1COCCN1c1cc(C2(O)CC3CCC(C2)O3)c2cnn(-c3ccn[nH]3)c2n1 (stereo unspecified) + CN(C)c1ccc(Nc2c3ccc(NC(=O)CCN4CCCC4)cc3nc3cc(NC(=O)CCN4CCCC4)ccc23)cc1 , give the reported viability, T/C.
Resp: 3.21
